Molecular target: T1, CD122-Fc fusion protein (UniProt P14784 27-240, limits assumed)
T1 construct: also called IL-2Rβ; not shown: Fc part
T1 sequence (looked up): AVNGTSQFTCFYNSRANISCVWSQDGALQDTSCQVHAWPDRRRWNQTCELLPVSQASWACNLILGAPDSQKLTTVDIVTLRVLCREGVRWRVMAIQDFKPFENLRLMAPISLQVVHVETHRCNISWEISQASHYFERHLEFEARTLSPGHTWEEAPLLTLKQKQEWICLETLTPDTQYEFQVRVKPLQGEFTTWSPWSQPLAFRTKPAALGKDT
Experiment: BLI (Octet RED96); CD122-Fc on AHC biosensor, IL-2 mutein at 400 nM
Design: unit not given here
Measure Name: Binding Response

Binder	Binding Response
IL-2-IL-15 Chimera 33 (I92D, C125S) (ligand, No fusion partner is stated for the assay; also called IL-2-IL-15 Chimera 29 (I92D, C125S)) APTSSSTKKTQLQLEHLLLDLQMILNGIQSMEIDATTFKFYMPKKATELKHLQCLEEELKPLEEVLNLAQSKNFHLRPRDLISNINVDVLELKGSETTFMCEYADETATIVEFLNRWITFSQSIISTLT	< 0.1
IL-2-IL-15 Chimera 29 (I92A, C125S) (ligand, Column headed 'Fusion Protein'; no fusion partner is stated for the assay) APTSSSTKKTQLQLEHLLLDLQMILNGIQSMEIDATTFKFYMPKKATELKHLQCLEEELKPLEEVLNLAQSKNFHLRPRDLISNINVAVLELKGSETTFMCEYADETATIVEFLNRWITFSQSIISTLT	< 0.1
IL-2-IL-15 Chimera 19 (D20T, C125S) (ligand, Column headed 'Fusion Protein'; no fusion partner is stated for the assay) APTSSSTKKTQLQLEHLLLTLQMILNGIQSMEIDATTFKFYMPKKATELKHLQCLEEELKPLEEVLNLAQSKNFHLRPRDLISNINVIVLELKGSETTFMCEYADETATIVEFLNRWITFSQSIISTLT	< 0.1
IL-2-IL-15 Chimera 1 (C125S) (ligand, Column headed 'Fusion Protein'; no fusion partner is stated for the assay) APTSSSTKKTQLQLEHLLLDLQMILNGIQSMEIDATTFKFYMPKKATELKHLQCLEEELKPLEEVLNLAQSKNFHLRPRDLISNINVIVLELKGSETTFMCEYADETATIVEFLNRWITFSQSIISTLT	> 0.5
IL-2-IL-15 Chimera 21 (D20A, C125S) (ligand, Column headed 'Fusion Protein'; no fusion partner is stated for the assay) APTSSSTKKTQLQLEHLLLALQMILNGIQSMEIDATTFKFYMPKKATELKHLQCLEEELKPLEEVLNLAQSKNFHLRPRDLISNINVIVLELKGSETTFMCEYADETATIVEFLNRWITFSQSIISTLT	< 0.1
IL-2-IL-15 Chimera 35 (I92E, C125S) (ligand, No fusion partner is stated for the assay; also called IL-2-IL-15 Chimera 29 (I92E, C125S)) APTSSSTKKTQLQLEHLLLDLQMILNGIQSMEIDATTFKFYMPKKATELKHLQCLEEELKPLEEVLNLAQSKNFHLRPRDLISNINVEVLELKGSETTFMCEYADETATIVEFLNRWITFSQSIISTLT	< 0.1
IL-2-IL-15 Chimera 31 (I92G, C125S) (ligand, No fusion partner is stated for the assay; also called IL-2-IL-15 Chimera 29 (I92G, C125S)) APTSSSTKKTQLQLEHLLLDLQMILNGIQSMEIDATTFKFYMPKKATELKHLQCLEEELKPLEEVLNLAQSKNFHLRPRDLISNINVGVLELKGSETTFMCEYADETATIVEFLNRWITFSQSIISTLT	< 0.2
IL-2-IL-15 Chimera 11 (H16E, C125S) (ligand, Column headed 'Fusion Protein'; no fusion partner is stated for the assay) APTSSSTKKTQLQLEELLLDLQMILNGIQSMEIDATTFKFYMPKKATELKHLQCLEEELKPLEEVLNLAQSKNFHLRPRDLISNINVIVLELKGSETTFMCEYADETATIVEFLNRWITFSQSIISTLT	< 0.2

Binding Response lookup needed for hIL-2 Mutein (R38N, L40T, C125S) (ligand, Column headed 'Fusion Protein'; no fusion partner is stated for the assay) APTSSSTKKTQLQLEHLLLDLQMILNGINNYKNPKLTNMTTFKFYMPKKATELKHLQCLEEELKPLEEVLNLAQSKNFHLRPRDLISNINVIVLELKGSETTFMCEYADETATIVEFLNRWITFSQSIISTLT , thanks.
> 0.5

Also need IL-2-IL-15 Chimera 25 (D20K, C125S) (ligand, Column headed 'Fusion Protein'; no fusion partner is stated for the assay) APTSSSTKKTQLQLEHLLLKLQMILNGIQSMEIDATTFKFYMPKKATELKHLQCLEEELKPLEEVLNLAQSKNFHLRPRDLISNINVIVLELKGSETTFMCEYADETATIVEFLNRWITFSQSIISTLT , thanks.
< 0.1

Same question for IL-2-IL-15 Chimera 17 (H16V, C125S) (ligand, Column headed 'Fusion Protein'; no fusion partner is stated for the assay) APTSSSTKKTQLQLEVLLLDLQMILNGIQSMEIDATTFKFYMPKKATELKHLQCLEEELKPLEEVLNLAQSKNFHLRPRDLISNINVIVLELKGSETTFMCEYADETATIVEFLNRWITFSQSIISTLT please.
< 0.1

Follow-up item: IL-2-IL-15 Chimera 27 (N88A, C125S) (ligand, Column headed 'Fusion Protein'; no fusion partner is stated for the assay) APTSSSTKKTQLQLEHLLLDLQMILNGIQSMEIDATTFKFYMPKKATELKHLQCLEEELKPLEEVLNLAQSKNFHLRPRDLISAINVIVLELKGSETTFMCEYADETATIVEFLNRWITFSQSIISTLT
< 0.1

// next record IL-2-IL-15 Chimera 15 (H16I, C125S) (ligand, Column headed 'Fusion Protein'; no fusion partner is stated for the assay) APTSSSTKKTQLQLEILLLDLQMILNGIQSMEIDATTFKFYMPKKATELKHLQCLEEELKPLEEVLNLAQSKNFHLRPRDLISNINVIVLELKGSETTFMCEYADETATIVEFLNRWITFSQSIISTLT
< 0.1
